# tested target: T1, hIL-4Rα on cells (human, UniProt P24394 26-825)
# T1 sequence: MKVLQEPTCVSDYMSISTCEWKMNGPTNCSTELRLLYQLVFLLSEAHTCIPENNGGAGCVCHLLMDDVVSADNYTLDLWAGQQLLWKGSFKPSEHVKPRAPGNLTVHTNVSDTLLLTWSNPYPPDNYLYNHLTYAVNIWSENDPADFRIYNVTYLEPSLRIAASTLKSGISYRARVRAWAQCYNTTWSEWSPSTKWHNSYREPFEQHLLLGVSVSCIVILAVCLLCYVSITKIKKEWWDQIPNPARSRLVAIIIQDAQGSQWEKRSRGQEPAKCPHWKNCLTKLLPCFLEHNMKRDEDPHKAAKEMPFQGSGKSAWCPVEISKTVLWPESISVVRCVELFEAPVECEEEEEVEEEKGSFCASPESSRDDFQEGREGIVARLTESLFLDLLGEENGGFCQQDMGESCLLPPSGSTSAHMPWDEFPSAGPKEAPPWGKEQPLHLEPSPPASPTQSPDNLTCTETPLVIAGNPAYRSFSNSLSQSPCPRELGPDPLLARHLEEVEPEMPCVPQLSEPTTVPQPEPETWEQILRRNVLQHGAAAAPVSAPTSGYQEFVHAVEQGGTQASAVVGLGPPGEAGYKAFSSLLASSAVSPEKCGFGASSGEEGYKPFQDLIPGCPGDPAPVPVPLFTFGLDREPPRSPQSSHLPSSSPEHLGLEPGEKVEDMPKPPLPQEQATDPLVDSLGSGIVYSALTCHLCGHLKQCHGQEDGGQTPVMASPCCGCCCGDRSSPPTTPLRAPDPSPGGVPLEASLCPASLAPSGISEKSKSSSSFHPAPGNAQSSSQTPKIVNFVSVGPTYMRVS
# method description: cell-based or functional assay
measurement name: Relative Inhibition of IL-4 induced TF-1 Proliferation IC50

Reference set, count: 4
[[record]]
binder = "Construct 32 (mAb446) (antibody, IgG4, V domains shown, VH/VL only) VH: EVQLVESGGGLEQPGGSLRLSCAGSGFTFRDFAMTWVRQAPGKGLEWVSSVSGDGGNTYYADSVKGRFTISRDNSKNTLYLQMNSLRAEDTAVYYCAKDRLSVTVRPRYYGLDVWGQGTTVTVSS VL: DIVMTQSPLSLPVTPGEPASISCRSSQSLLYSNGYNYLDWYLQKSGQSPQLLIYLSSNRASGVPDRFSGSGSGTDFTLKISRVEAEDVGFYYCMQAFQAPYTFGQGTKLEIK"
result_value = "1.74 relative to dupilumab"

[[record]]
binder = "Construct 40 (mAb476) (antibody, IgG4, V domains shown, VH/VL only) VH: EVQLVESGGGLEQPGGSLRLSCAGSGFTFRDFAMTWVRQAPGKGLEWVSSVSGDGGNTYYADSVKGRFTISRDNSKNTLYLQMNSLRAEDTAVYYCAKDRLSKTIRPRYYGLDVWGQGTTVTVSS VL: DIVMTQSPLSLPVTPGEPASISCRSSQSVLYSIGYNYVDWYLQKSGQSPQLLIYLGNKRASGVPDRFSGSGSGTDFTLKISRVEAEDVGFYYCMQAYQSPYVFGQGTKLEIK"
result_value = "0.968 relative to dupilumab"

[[record]]
binder = "Construct 1 (mAb410) (antibody, IgG4, V domains shown, VH/VL only) VH: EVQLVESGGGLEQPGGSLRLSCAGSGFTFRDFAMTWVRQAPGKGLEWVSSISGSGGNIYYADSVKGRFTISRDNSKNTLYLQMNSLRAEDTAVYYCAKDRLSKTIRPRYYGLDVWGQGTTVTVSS VL: DIVMTQSPLSLPVTPGEPASISCRSSQSVLYSIGYNYVDWYLQKSGQSPQLLIYLGSKRASGVPDRFSGSGSGTDFTLKISRVEAEDVGFYYCMQSLDTPYTFGQGTKLEIK"
result_value = "0.414 relative to dupilumab"

[[record]]
binder = "Construct 5 (mAb414) (antibody, IgG4, V domains shown, VH/VL only) VH: EVQLVESGGGLEQPGGSLRLSCAGSGFTFRDFAMTWVRQAPGKGLEWVSSISGSGDNIYYADSVKGRFTISRDNSKNTLYLQMNSLRAEDTAVYYCAKDRVSITIRPRYYGLDVWGQGTTVTVSS VL: DIVMTQSPLSLPVTPGEPASISCRSSQSLLYSIGKNYVDWYLQKSGQSPQLLIYLGNKRASGVPDRFSGSGSGTDFTLKISRVEAEDVGFYYCMQSLQTPYVFGQGTKLEIK"
result_value = "0.521 relative to dupilumab"


Tell me Relative Inhibition of IL-4 induced TF-1 Proliferation IC50 reported for Construct 34 (mAb459) (antibody, IgG4, V domains shown, VH/VL only) VH: EVQLVESGGGLEQPGGSLRLSCAGSGFTFRDFAMTWVRQAPGKGLEWVSSISGSGDNIYYADSVKGRFTISRDNSKNTLYLQMNSLRAEDTAVYYCAKDRLSKTIRPRYYGLDVWGQGTTVTVSS VL: DIVMTQSPLSLPVTPGEPASISCRSSQGLLYSIGYNYVDWYLQKSGQSPQLLIYLGNKRASGVPDRFSGSGSGTDFTLKISRVEAEDVGFYYCMQALDTPYTFGQGTKLEIK
1.46 relative to dupilumab
